Assay: NCI Yeast Anticancer Drug Screen. Data for the mec2-1 strain (AID 157)
Details: S. cerevisiae mec2-1 strain, at 50.0 µM (retest, dose inferred, filed as 5.0)
The panel holds about 79,000 compounds, 15% with a hit somewhere; the sample as a whole holds those more often. Activity calls are given as the source filed them. Rule as the data show it: active = growth inhibition above about 70%; inactive = the rest.
Please reply with one of these outcomes: active, inactive

| compound | class name |
| --- | --- |
| O=[N+]([O-])C(Br)(Br)CCC(Br)(Br)[N+](=O)[O-] | active |
| O=[N+]([O-])c1ccc(SC2CCCCCCC2Cl)c([N+](=O)[O-])c1 (centres undefined) | inactive |
| CCC[CH2][Sn]1([CH2]CCC)[O]CC(c2ccccn2)C[O]1 | active |
| CCCCN(CCCC)CC(C(C)=O)C(c1ccccc1)c1c(O)c2ccccc2oc1=O (centres undefined) | inactive |

Query: Kindly provide the recorded test outcome for the following compound: CC1(C)OCC(COC(=O)C=[N+]=[N-])O1 (centres undefined)
Response: inactive

Query: CC1(C)N=C(N)N=C(N)N1c1cccc(N)c1.[Sn] , same question.
Response: inactive

Query: CC1(C)CC(=O)C([Se]C2=C(O)CC(C)(C)CC2=O)=C(O)C1 , same question.
Response: active

The measurements presented in this section are drawn from PubChem BioAssay (NCI).
